# Tested on: non-small cell lung cancer cell line H460
# TEST_METHOD_NOTES: In vitro human cancer cell line cytotoxicity (proliferation) assay in H460, CellTiter-Glo, 72 hours
# Type: cell-based
# COND: Homo sapiens, NCI-H460, 72 h, H460 cells, DMSO condition (no AKR1C3 inhibitor), read-out: CTG H460: Avg IC50 (nM) [Assay Condition: DMSO]
Give measured IC50 for each item. Keep answers brief.

Solved entries:
MOLECULE | TEST_VALUE
Cn1c(=O)oc2ccc(Oc3c([N+](=O)[O-])ccc4c3CC[C@@H]4OP(=O)(N3CC3)N3CC3)cc21 [Example 380] | < 10 nM
O=[N+]([O-])c1ccc2c(c1Oc1ccc(F)c(-n3ccc(F)n3)c1)CC[C@@H]2OP(=O)(N1CC1)N1CC1 [Example 442] | < 10 nM

Batch: IC50 for all items listed.
1. COc1ccn(Cc2cc(C(C)OP(=O)(N3CC3)N3CC3)ccc2[N+](=O)[O-])c(=O)c1 (single isomer, unassigned) [Example 2]
2. O=c1ccccn1-c1cccc(Oc2c([N+](=O)[O-])ccc3c2CCC3OP(=O)(N2CC2)N2CC2)c1 (stereo not drawn) [Example 80]
3. O=[N+]([O-])c1cc2c(cc1Oc1ccc(-c3ccccc3)cc1)C(OP(=O)(N1CC1)N1CC1)CC2 (single isomer, unassigned) [Example 152]
4. Cn1c(=O)oc2ccc(Oc3c([N+](=O)[O-])ccc4c3CCC4OP(=O)(N3CC3)N3CC3)cc21 (single isomer, unassigned) [Example 64]

**A:**
1: ≥ 100 nM; 2: < 10 nM; 3: < 10 nM; 4: < 10 nM

---

# Test system: non-small cell lung cancer cell line H460
# TEST_METHOD_NOTES: In vitro human cancer cell line cytotoxicity (proliferation) assay in H460, CellTiter-Glo, 72 hours
# Assay type: cell-based
# COND: Homo sapiens, NCI-H460, 72 h, H460 cells, DMSO condition (no AKR1C3 inhibitor), read-out: CTG H460: Avg IC50 (nM) [Assay Condition: DMSO]
REPORTED_ENDPOINT: IC50

Solved entries:
MOLECULE | REPORTED_ENDPOINT | TEST_VALUE
O=C1c2cc(Oc3c([N+](=O)[O-])ccc4c3CC[C@@H]4OP(=O)(N3CC3)N3CC3)ccc2CN1C1CC1 (single isomer, unassigned) [Example 39] | IC50 | < 10 nM
O=[N+]([O-])c1ccc2c(c1Oc1ccc(-c3ccccc3)cc1)OCCC2OP(=O)(N1CC1)N1CC1 (stereo not drawn) [Example 134] | IC50 | 10 to 50 nM
Cn1nnc(-c2cc(Oc3c([N+](=O)[O-])ccc4c3CC[C@@H]4OP(=O)(N3CC3)N3CC3)ccc2F)n1 [Example 355] | IC50 | < 10 nM
O=C(c1cccc(Oc2cc3cc(COP(=O)(N4CC4)N4CC4)oc3cc2[N+](=O)[O-])c1)N1CCC1 [Example 535] | IC50 | < 10 nM
O=[N+]([O-])c1ccc2c(c1Oc1ccc(-c3ccccn3)cc1)CC[C@@H]2OP(=O)(N1CC1)N1CC1 (single isomer, unassigned) [Example 40] | IC50 | < 10 nM

Consider the record given below.
# IC50 measured on non-small cell lung cancer cell line H460 for item CC(OP(=O)(N1C[C@@H]1C)N1C[C@@H]1C)c1ccc([N+](=O)[O-])c(Oc2cccc(C(=O)N(C)C)c2)c1 (single isomer, unassigned) [Example 209] = < 10 nM
